Target: Serine/threonine-protein kinase pim-3 (Homo sapiens)
Assay: Inhibition of human full length (His)6-tagged Pim-3 expressed in insect Sf21 cells using RSRHSSYPAGT as substrate measured for 30 mins by [gamma-33P]ATP-based kinase assay

>  <chemical_smiles>
c1ccc2c(c1)[nH]c1c3[nH]c4ccccc4c3c3[nH]ncc3c21

>  <IC50 / nM>
22

$$$$

* * *

List of Activity values.
Biological target: Protein kinase C alpha type (Homo sapiens) (UniProt P17252)
Assay: Inhibition of human full length (His)6-tagged PKCalpha expressed in insect Sf21 cells using histone H1 as substrate assessed as residual enzyme activity at 1 uM measured for 30 mins by [gamma-33P]ATP-based kinase assay

>  <chemical_smiles>
c1ccc2c(c1)[nH]c1c3[nH]c4ccccc4c3c3[nH]ncc3c21

>  <assayed_target>
Protein kinase C alpha type (Homo sapiens) (UniProt P17252)

>  <Activity (%)>
103

$$$$
>  <chemical_smiles>
O=c1[nH][nH]c(-c2c[nH]c3ccccc23)c1-c1c[nH]c2ccccc12

>  <assayed_target>
Protein kinase C alpha type (Homo sapiens) (UniProt P17252)

>  <Activity (%)>
117

$$$$
>  <chemical_smiles>
O=c1[nH][nH]c2c1c1c3ccccc3[nH]c1c1[nH]c3ccccc3c12

>  <assayed_target>
Protein kinase C alpha type (Homo sapiens) (UniProt P17252)

>  <Activity (%)>
107

$$$$
>  <chemical_smiles>
c1ccc2c(-c3cn[nH]c3-c3c[nH]c4ccccc34)c[nH]c2c1

>  <assayed_target>
Protein kinase C alpha type (Homo sapiens) (UniProt P17252)

>  <Activity (%)>
112

$$$$
